Origin of the recorded values: PubChem BioAssay (Tox21)

# system: Muscarinic acetylcholine receptor M1 (Homo sapiens)
# assay_procedure: Cholinergic receptor muscarinic 1 (CHRM1) small molecule antagonists, cell-based qHTS assay (AID 1963588); note: nearly all actives have a fitted effect of over 40% in size; note: potency is the fitted concentration of half-maximal effect
# condition_details: CHRM1-CHO antagonist mode, calcium flux fluorescence; series mostly up to 61.5 µM
Results filed as inconclusive are left out. Activity calls are given as the source filed them. Calls come from the whole dose curve.
readout_label: Potency

{"molecule": "O=C1CCCCO1", "readout_label": "Potency", "observed_result": "inactive"}
{"molecule": "CC1=C(C(=O)OC(C)C)C(c2cccc([N+](=O)[O-])c2)C(C(=O)OC2CN(C(c3ccccc3)c3ccccc3)C2)=C(N)N1 (stereo unspecified)", "readout_label": "Potency", "observed_result": "inactive"}
{"molecule": "CC(C)(O)c1coc(S(=O)(=O)NC(=O)Nc2c3c(cc4c2CCC4)CCC3)c1", "readout_label": "Potency", "observed_result": "inactive"}
{"molecule": "Cc1ccc(CCn2c3c(c4cc(Cl)ccc42)CN(C)CC3)cn1", "readout_label": "Potency", "observed_result": "inactive"}
{"molecule": "Cc1cccc(C)c1NC(=O)c1ccccc1C(=O)O", "readout_label": "Potency", "observed_result": "inactive"}

For each entry beneath this line, provide reported Potency.
1. CCCCC(CC)(CO)CO
2. C=CCn1c(=O)n([C@@H]2O[C@H](CO)[C@@H](O)[C@H]2O)c2nc(N)[nH]c(=O)c21
3. C=Cc1ccccc1

1. inactive
2. inactive
3. inactive

For each entry beneath this line, provide reported Potency.
1. COC(=O)CC#N
2. Cc1ccc(Cl)c(OCC(O)CNC(C)(C)C)c1 (stereo unspecified)
3. CC1=C2[C@@H]([C@H](C)CC[C@H]2/C=C(\C)C(=O)O)[C@H](O)C1
4. CC(=O)OC1CCC(C(C)(C)C)CC1 (stereo unspecified)
5. CC(CO)(CO)C(=O)O

1: inactive; 2: inactive; 3: 0.0026 µM (active); 4: inactive; 5: inactive

For each entry beneath this line, provide reported Potency.
1. CCCCOC(=O)/C=C\C(=O)OCCCC
2. CCCCCCC(CO)CCCC (stereo unspecified)
3. CN(C)CCc1c[nH]c2ccc(C[C@H]3COC(=O)N3)cc12

1. inactive
2. inactive
3. inactive
